Numbers sourced from ChEMBL document CHEMBL5724914.

method-description: The drug is tested on WLS-039 corresponding to human gut metagenome with ENA study accession number: PRJEB37062 and ENA sample accession number: ERS12561746 for biotransformation under anaerobic condition. The drug concentrations were measured over 9 timepoints collected between 0 and 24 hours of incubation by liquid-chromatography-coupled mass spectrometry (LC–MS); note: call rule not given here
stated-conditions: 2 µM
measure-name: Bacterial Biotransformation

- molecule: "OCCOCCN1CCN(C2=Nc3ccccc3Sc3ccccc32)CC1"
  measured-result: "Compound NOT metabolized"
- molecule: "Cc1ccc(-c2cc(C(F)(F)F)nn2-c2ccc(S(N)(=O)=O)cc2)cc1"
  measured-result: "Compound metabolized"
- molecule: "OCCN1CCN(CCCN2c3ccccc3Sc3ccc(C(F)(F)F)cc32)CC1"
  measured-result: "Compound metabolized"
- molecule: "COC1=CC(=O)C[C@@H](C)[C@]12Oc1c(Cl)c(OC)cc(OC)c1C2=O"
  measured-result: "Compound metabolized"

Would you kindly share the measured Bacterial Biotransformation for CN/C(=N/CCSCc1nc[nH]c1C)NC#N ?
Compound NOT metabolized

Can you look up the measured Bacterial Biotransformation of CN1CCN(CC/C=C2/c3ccccc3Sc3ccc(S(=O)(=O)N(C)C)cc32)CC1 for me?
Compound metabolized

Returns the measured Bacterial Biotransformation for the input molecule. Input: COc1ccc2c(c1OC)C(=O)O[C@@H]2[C@H]1c2c(cc3c(c2OC)OCO3)CCN1C
Compound NOT metabolized

Item CN1CCOC(c2ccccc2)c2ccccc2C1 (centres undefined) has what recorded Bacterial Biotransformation?
Compound NOT metabolized

Fill in the blank: the reported Bacterial Biotransformation of COc1ccccc1OCC(O)CN1CCN(CC(=O)Nc2c(C)cccc2C)CC1 (centres undefined) is ____.
Compound NOT metabolized

Recorded Bacterial Biotransformation for CC(C)N(CCC(C(N)=O)(c1ccccc1)c1ccccn1)C(C)C.O=P(O)(O)O (centres undefined) [DISOPYRAMIDE PHOSPHATE] , please?
Compound NOT metabolized

Quick one: Bacterial Biotransformation of CC(C)(C(=O)O)c1ccc(C(O)CCCN2CCC(C(O)(c3ccccc3)c3ccccc3)CC2)cc1 (centres undefined) [FEXOFENADINE] ?
Compound NOT metabolized

I would be grateful if you could share the reported Bacterial Biotransformation for NC12CC3CC(CC(C3)C1)C2 .
Compound NOT metabolized

###

method-description: The drug is tested on WLS-038 corresponding to human gut metagenome with ENA study accession number: PRJEB37062 and ENA sample accession number: ERS12561745 for biotransformation under anaerobic condition. The drug concentrations were measured over 9 timepoints collected between 0 and 24 hours of incubation by liquid-chromatography-coupled mass spectrometry (LC–MS)
stated-conditions: 2 µM
measure-name: Bacterial Biotransformation

- compound: "CC(=O)OCC(=O)[C@@]1(O)[C@@H](C)C[C@H]2[C@@H]3CCC4=CC(=O)C=C[C@]4(C)[C@@]3(F)[C@@H](O)C[C@@]21C [BETAMETHASONE ACETATE]"
  measure-name: "Bacterial Biotransformation"
  measured-result: "Compound metabolized"
- compound: "OCCOCCN1CCN(C2=Nc3ccccc3Sc3ccccc32)CC1"
  measure-name: "Bacterial Biotransformation"
  measured-result: "Compound NOT metabolized"
- compound: "CNCCC(Oc1ccc(C(F)(F)F)cc1)c1ccccc1 (centres undefined)"
  measure-name: "Bacterial Biotransformation"
  measured-result: "Compound NOT metabolized"
- compound: "CCOC(=O)[C@H](CCc1ccccc1)N[C@@H](C)C(=O)N1[C@H](C(=O)O)C[C@@H]2CCC[C@@H]21"
  measure-name: "Bacterial Biotransformation"
  measured-result: "Compound metabolized"

Which value of Bacterial Biotransformation has been reported for CS(=O)(=O)O.OC(CCN1CCCCC1)(c1ccccc1)c1ccccc1 [PRIDINOL METHANESULFONATE] in the records?
Compound NOT metabolized

Param item = CCC(=O)NCC[C@@H]1CCc2ccc3c(c21)CCO3 ; retrieve measured Bacterial Biotransformation.
Compound metabolized

Which Bacterial Biotransformation is listed for CCOC(=O)[C@H](CCc1ccccc1)N[C@@H](C)C(=O)N1[C@H](C(=O)O)C[C@H]2CCCC[C@@H]21 ?
Compound metabolized

Please give the measured Bacterial Biotransformation for this compound: CCc1nc(N)nc(N)c1-c1ccc(Cl)cc1
Compound NOT metabolized

Recorded Bacterial Biotransformation of O=C1NCC2(CCN(CCc3ccccc3)CC2)O1 [FENSPIRIDE] , please.
Compound NOT metabolized
